Value source: patent US8575156B2

target: 11β-HSD1 (Homo sapiens); assay: biochemical; conditions: read-out: Average % inhibition at 100 nM, Biological Test Example 1; 100 nM
Measured Attribute: inhibition at 0.1 µM (%)
One number for each entry, in %.

Recorded inhibition at 0.1 µM, per entry:
[
  {
    "Compound": "C[C@@H](c1ccc(F)cc1)N1CC[C@](CCCNS(C)(=O)=O)(c2ccc(F)cc2)OC1=O [EXAMPLE 409]",
    "Readout Units": "%",
    "inhibition at 0.1 µM": 91.6
  },
  {
    "Compound": "C[C@@H](c1ccc(-c2ccc(F)cc2F)cc1)N1CC[C@](CCCOP(=O)(O)O)(c2ccccc2)OC1=O [EXAMPLE 492]",
    "Readout Units": "%",
    "inhibition at 0.1 µM": 87.7
  },
  {
    "Compound": "C[C@@H](c1ccc(Br)cc1)N1CC[C@](CCN2CC[C@H](F)C2)(c2ccc(F)cc2)OC1=O [EXAMPLE 377]",
    "Readout Units": "%",
    "inhibition at 0.1 µM": 72
  }
]

Next:
// C[C@@H](c1ccc(-c2cccc(CN)c2)cc1)N1CC[C@](CCCO)(c2ccccc2)OC1=O [EXAMPLE 493] : inhibition at 0.1 µM value = 89.1

====

molecular target: 11β-HSD1 (Homo sapiens); assay: biochemical; conditions: read-out: Average % inhibition at 100 nM, Biological Test Example 1; 100 nM
What inhibition at 0.1 µM was measured for each of the following?

Batch of 6 compounds: report inhibition at 0.1 µM for each.
1. Cc1nnc(CC[C@]2(c3ccccc3)CCN([C@@H](C)c3ccc(Br)cc3)C(=O)O2)o1 [EXAMPLE 595]
2. O=C1OC(CCCO)(c2ccc(F)cc2)CCN1Cc1c(F)cccc1Cl (stereo not shown) [EXAMPLE 349]
3. NC(=O)c1ccc(-c2ccccc2CN2CCC(CCCO)(c3ccc(F)cc3)OC2=O)cc1 (stereo not shown) [EXAMPLE 386]
4. C[C@@H](c1ccc(OC(F)F)cc1)N1CC[C@](CCCNS(C)(=O)=O)(c2ccccc2)OC1=O [EXAMPLE 331]
5. C[C@@H](C1CCCCC1)N1CC[C@](CCNS(C)(=O)=O)(c2ccc(F)cc2)OC1=O [EXAMPLE 318]
6. C[C@@H](c1ccc(-c2ccc(F)cc2F)cc1)N1CC[C@](CCC(=O)O)(c2ccccc2)OC1=O [EXAMPLE 503]

Reply:
1. 90.6%
2. 89.8%
3. 52.5%
4. 97.1%
5. 83.8%
6. 90.1%

Batch of 2 compounds: report inhibition at 0.1 µM for each.
1. CC[C@@H](c1ccc(Br)cc1)N1CC[C@](CCC(N)=O)(c2ccc(F)cc2)OC1=O [EXAMPLE 368]
2. C[C@@H](c1ccc(-c2ccc(F)cc2)cc1)N1CC[C@](CCN2CCOCC2)(c2ccccc2)OC1=O [EXAMPLE 491]

Reply:
1. 96.9%
2. 99.3%

Batch of 7 compounds: report inhibition at 0.1 µM for each.
1. C[C@@H](c1ccc(-c2ccc(CN)cc2)cc1)N1CC[C@](CCCO)(c2ccccc2)OC1=O [EXAMPLE 495]
2. C[C@@H](c1cccc(Br)c1)N1CC[C@](CCCNS(C)(=O)=O)(c2ccc(F)cc2)OC1=O [EXAMPLE 359]
3. CC(O)CC[C@]1(c2ccc(F)cc2)CCN([C@@H](C)c2ccc(F)cc2)C(=O)O1 (single isomer, unassigned) [EXAMPLE 411 Isomer 1]
4. C[C@@H](c1ccc(-c2ccc(F)cc2)cc1)N1CC[C@](CCN2CCNC(=O)C2)(c2ccc(F)cc2)OC1=O [EXAMPLE 467]
5. C[C@@H](c1cccc(Br)c1)N1CC[C@](CC(C)(C)O)(c2ccc(F)cc2)OC1=O [EXAMPLE 356]
6. C[C@@H](c1ccc(Br)cc1)N1CC[C@](CC(=O)CO)(c2ccc(F)cc2)OC1=O [EXAMPLE 527]
7. C[C@@H](C1CCCCC1)N1CC[C@](CCCNS(C)(=O)=O)(c2ccc(F)cc2)OC1=O [EXAMPLE 319]

Reply:
1: 95.8%; 2: 67.5%; 3: 88.7%; 4: 81.2%; 5: 92%; 6: 89.7%; 7: 93.4%

// Cc1ccc([C@H](C)N2CC[C@](CCCO)(c3ccc(F)cc3)OC2=O)cc1 [EXAMPLE 418] : inhibition at 0.1 µM value = 99.2%

====

biological target: 11β-HSD1 (Homo sapiens); assay: biochemical; details: IC50 Range, Biological Test Example 1; microsomes from CHO cells overexpressing human 11β-HSD1
Measured Attribute: IC50

[
  {
    "Molecule": "C[C@@H](c1ccc(-c2ccc(F)cc2)cc1)N1CC[C@](CCN2CC[C@@H](F)C2)(c2ccc(F)cc2)OC1=O [EXAMPLE 466]",
    "System": "11β-HSD1 (Homo sapiens)",
    "IC50": "< 100 nM"
  },
  {
    "Molecule": "C=CC[C@]1(c2ccc(F)cc2)CCN([C@@H](C)c2ccc(C#N)cc2)C(=O)O1 [EXAMPLE 192]",
    "System": "11β-HSD1 (Homo sapiens)",
    "IC50": "< 100 nM"
  }
]

// CC(C#N)C[C@]1(c2ccc(F)cc2)CCN([C@@H](C)c2ccc(Br)cc2)C(=O)O1 (stereo partly drawn) [EXAMPLE 520] : IC50 value = < 100 nM

====

target: 11β-HSD1 (Homo sapiens, UniProt P28845); experiment: biochemical; conditions: IC50 Range, Biological Test Example 1; microsomes from CHO cells overexpressing human 11β-HSD1
Sequence (P28845 whole entry): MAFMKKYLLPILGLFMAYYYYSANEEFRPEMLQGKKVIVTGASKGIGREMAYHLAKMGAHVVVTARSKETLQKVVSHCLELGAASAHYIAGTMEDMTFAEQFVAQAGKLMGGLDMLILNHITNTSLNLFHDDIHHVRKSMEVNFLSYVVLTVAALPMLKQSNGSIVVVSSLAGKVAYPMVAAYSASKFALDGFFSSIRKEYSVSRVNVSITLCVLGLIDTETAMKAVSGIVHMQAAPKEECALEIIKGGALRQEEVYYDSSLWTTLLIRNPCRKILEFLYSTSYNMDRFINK
pIC50: −log10 of the molar value.
What pIC50 was measured for each of the following?

Recorded pIC50, per entry:
[
  {
    "Compound": "CC[C@@H](c1ccc(OC(F)F)cc1)N1CC[C@](CCC(N)=O)(c2ccccc2)OC1=O",
    "pIC50": "> 7.00"
  },
  {
    "Compound": "CC[C@@H](c1ccc(-c2ccc(F)cc2)cc1)N1CC[C@](CCCO)(c2ccc(F)cc2)OC1=O",
    "pIC50": "> 7.00"
  }
]

// COc1ccc([C@H](C)N2CCC(CCCO)(C(C)C)OC2=O)cc1 (single isomer, unassigned) [EXAMPLE 332 Isomer 1] : pIC50 value = > 7.00
